system: P388 leukemia ip, CD2F1 mice, survival T/C; assay: NCI In Vivo Anticancer Drug Screen. Data for tumor model P388 Leukemia (intraperitoneal) in CD2F1 (CDF1) mice; conditions: endpoint: median survival time; dose: 1.56 mg/kg/injection; schedule: Q01DX009 (ip); vehicle: saline with Tween-80; higher = longer survival
Toxic doses and inconclusive results are not listed.
endpoint-name: T/C

Illustrative cases are given below, each with its answer.
O=S(=O)(CCl)OCCF: 110 % of control
O=C(Nc1cccc2ccccc12)N1c2ccccc2SC12CCCC2: 104 % of control
C/C=C1\CNC2Cc3c([nH]c4ccccc34)C(c3c(OC)ccc4c5c([nH]c34)C3(C(=O)OC)CC4CC(CC)C3N(CC5)C4)CC1C2C(=O)OC (centres undefined): 93 % of control

Moving on to another molecule below.
Prompt: Requested read-out: T/C. Entry: `O=c1[nH]c2ccccc2nc1CBr`
Completion: 109 % of control

====

I'd appreciate it if you could supply T/C values for the items below.
tested on: P388 leukemia ip, CD2F1 mice, survival T/C; test: NCI In Vivo Anticancer Drug Screen. Data for tumor model P388 Leukemia (intraperitoneal) in CD2F1 (CDF1) mice; settings: endpoint: median survival time; dose: 240.0 mg/kg/injection; schedule: Q01DX005 (ip); vehicle: saline; higher = longer survival
Inconclusive results and toxic doses are left out.

Illustrative cases are given below, each with its answer.
CCC1COc2nc(=O)c(C=NCCCN(C)C)c(N)n21 (stereo unspecified): 99 % of control
O=S(=O)(O)C(O)C(F)(F)C(F)(F)C(F)(F)F (stereo unspecified): 99 % of control
COC(=O)C1CO[C@@H](C(C)(C)C)N1C=O (stereo partly specified): 101 % of control

Can you give me T/C for all of these, one by one?
1. O=C(O)C(Cc1c[nH]c2ccc(O)cc12)NCC1(O)OCC(O)C(O)C1O (stereo unspecified)
2. CC(=O)Nn1cnc2[nH]ncc2c1=O
3. CCC1C(=O)CC(C(=O)O)C1C(=O)O (stereo unspecified)
4. O=c1c(N=Nc2nc3ccc([N+](=O)[O-])cc3s2)c(O)n(-c2ccccc2)c(=S)n1-c1ccccc1
5. Nc1cc(N)n(C2=NCCN2)n1
6. Nc1nnc2nc(CC(=O)c3ccc([N+](=O)[O-])cc3)c(CC(=O)c3ccc([N+](=O)[O-])cc3)nn12

Completion:
98 % of control
101 % of control
86 % of control
92 % of control
98 % of control
100 % of control

Can you give me T/C for all of these, one by one?
1. CC1SC(C)C1O (stereo unspecified)
2. CNC(=O)NCc1cccnc1
3. CO[C@H]1C[C@H]2CC[C@@]1(C)C2(C)C
4. Cc1nc2c([N+](=O)[O-])cc(C(=O)O)cc2[nH]1
5. COc1nc(NC2OC(CO)C(O)C(O)C2O)c(/C=N/O)c(=O)n1C (stereo unspecified)
6. CN(CCO)c1cnn(CCO)c(=O)c1Cl
7. CC1(C)N=C(N)N=C(N)N1c1ccc(CN)cc1

Completion:
["93 % of control", "99 % of control", "100 % of control", "87 % of control", "99 % of control", "102 % of control", "106 % of control"]

====

tested on: P388 leukemia ip, CD2F1 mice, survival T/C; assay: NCI In Vivo Anticancer Drug Screen. Data for tumor model P388 Leukemia (intraperitoneal) in CD2F1 (CDF1) mice; settings: endpoint: median survival time; dose: 12.5 mg/kg/injection; schedule: Q04DX003 (ip); vehicle: saline with Tween-80
Toxic doses and inconclusive results are not listed. Rule for the calls: active = survival T/C of 150% or more; inactive = T/C below 125% in these data.
Could you please pick one outcome from this set? TRUE = active, FALSE = inactive

As a guide, the following entries are already answered.
CCOC(=O)C(Cc1ccc(N(CCCl)CCCl)cc1)NC=O (stereo unspecified): TRUE
Cn1cnc2ncnc(NCc3ccccc3Cl)c21: FALSE
CCCCCCCCP(=O)(N1CC1C)N1CC1C (stereo unspecified): FALSE
CN=P1(NC)NP(=NC)(NC)NP(=NC)(NC)NP(=NC)(NC)N1.[Cl-].[Cl-].[Cl-].[Cl-].[Pt+2] (stereo unspecified): FALSE
CC(=O)[C@]1(O)Cc2c(O)c3c(c(O)c2C(OC2CC(N=[N+]=[N-])C(O)[C@@H](CN=[N+]=[N-])O2)C1)C(=O)c1c(O)cccc1C3=O (stereo partly specified): FALSE

# next compound below
Prompt: Write down the call the test reported for this compound. Item: `Cc1nc2c([N+](=O)[O-])c(N3CCN(C)CC3)c([N+](=O)[O-])cc2[nH]1`
Completion: FALSE

====

I'd appreciate it if you could supply T/C values for the items below.
test system: P388 leukemia ip, CD2F1 mice, survival T/C; test: NCI In Vivo Anticancer Drug Screen. Data for tumor model P388 Leukemia (intraperitoneal) in CD2F1 (CDF1) mice; conditions: endpoint: median survival time; dose: 200.0 mg/kg/injection; schedule: Q01DX009 (ip); vehicle: saline; higher = longer survival
Inconclusive results and toxic doses are left out.

Cc1cc(OC(=O)c2c(-c3ccccc3)noc2C)n(-c2ccc(NC(=O)c3c(-c4ccccc4)noc3C)cc2)n1: 101 % of control

Can you give me T/C for all of these, one by one?
1. CC1(C)C(=O)C(C)(C)C1O
2. COP(=O)(CI)OC
3. O=C1CSc2ncccc2N1c1ccc([N+](=O)[O-])cn1
4. NCC(OCCCC(=O)O)C(Cl)(Cl)Cl (configuration not stated)
5. COC(=O)N[Si](C)(C)C

Completion:
1: 98 % of control; 2: 107 % of control; 3: 96 % of control; 4: 100 % of control; 5: 100 % of control

Prompt: Requested read-out: T/C. Entry: `COc1cc([N+](=O)[O-])ccc1N=Cc1cccs1`
Completion: 101 % of control

====

I'd appreciate it if you could supply T/C values for the items below.
Tested on: P388 leukemia ip, CD2F1 mice, survival T/C
Assay: NCI In Vivo Anticancer Drug Screen. Data for tumor model P388 Leukemia (intraperitoneal) in CD2F1 (CDF1) mice
Conditions: endpoint: median survival time; dose: 100.0 mg/kg/injection; schedule: Q01DX005 (ip); vehicle: Klucel (hydroxypropylcellulose) (HPC); higher = longer survival
Experimental: The antitumor activity of compounds was measured in mice bearing transplantable tumors. Survival or tumor size were measured and the results are expressed as the measurement made in the treated group (T) divided by the measurement made in the vehicle treated control group (C). The tumor model used in this assay is P388 Leukemia (intraperitoneal) in CD2F1 (CDF1) mice
Inconclusive results and toxic doses are left out.

Illustrative cases are given below, each with its answer.
CCc1nc2c(cnn2C)c(=O)n1-c1ccccc1Cl: 100 % of control
O=C(O)CCSCCCCCCCCCCSCCC(=O)O: 93 % of control
CCOP(=O)(Nc1c(Cl)cc2c(c1Cl)Cc1cc([N+](=O)[O-])ccc1-2)OCC: 88 % of control
C=C1C(=O)OC2CC(C)C3(O)CCC(=O)C3(C)CC12 (configuration not stated): 100 % of control

Can you give me T/C for all of these, one by one?
1. COc1ccc2c(c1OC)C(O)N1CCc3cc4c(cc3C1=C2C(=O)c1ccccc1)OCO4 (configuration not stated)
2. c1ccc(OP2(Oc3ccccc3)=NP(Oc3ccccc3)(Oc3ccccc3)=NP(Oc3ccccc3)(Oc3ccccc3)=NP(Oc3ccccc3)(Oc3ccccc3)=N2)cc1
3. COc1ccc(C2=C(c3ccccc3)C(=O)C3(c4ccccc4)CC23c2ccc(OC)cc2)cc1 (configuration not stated)

Completion:
111 % of control
91 % of control
89 % of control

====

system: P388 leukemia ip, CD2F1 mice, survival T/C; assay: NCI In Vivo Anticancer Drug Screen. Data for tumor model P388 Leukemia (intraperitoneal) in CD2F1 (CDF1) mice; settings: endpoint: median survival time; dose: 200.0 mg/kg/injection; schedule: Q01DX009 (ip); vehicle: other; higher = longer survival
Inconclusive results and toxic doses are left out.
I'd appreciate it if you could supply T/C values for the items below.

Illustrative cases are given below, each with its answer.
OC1CCCCCC2CC12 (stereo not given) (tested in a mixture with another compound): 96 % of control
COC(=O)C(Br)CN1C(=O)c2ccccc2C1=O (stereo not given): 104 % of control
CCOC(=O)c1ccc2ccc(OC)c(OC)c2c1: 104 % of control
CCOC(=O)/C=C(/Nc1cccc(OC)c1)c1ccccc1: 91 % of control

Moving on to another compound below.
Prompt: Requested read-out: T/C. Entry: `C1=Cc2ccccc2CS1`
Completion: 88 % of control

====

system: P388 leukemia ip, CD2F1 mice, survival T/C; experiment: NCI In Vivo Anticancer Drug Screen. Data for tumor model P388 Leukemia (intraperitoneal) in CD2F1 (CDF1) mice; conditions: endpoint: median survival time; dose: 120.0 mg/kg/injection; schedule: Q01DX005 (ip); vehicle: Klucel (hydroxypropylcellulose) (HPC); higher = longer survival
Toxic doses and inconclusive results are not listed.
endpoint-name: T/C

Illustrative cases are given below, each with its answer.
Cc1ccc2nc3ccccc3c(SCCCCCCSc3c4ccccc4nc4ccc(C)cc34)c2c1: 87 % of control
O=C(NC1C=Nc2ccccc2NC1=O)c1ccc(Cl)cc1 (stereo not given): 98 % of control

Can you give me T/C for all of these, one by one?
1. O=C1S/C(=C2\C(=O)N(CN3CCCCC3)c3ccc(Br)cc32)C(=O)N1CN1CCCCC1
2. CCOC(=O)c1cnc2cc3c(cc2c1Nc1cccc(C(F)(F)F)c1)OCO3
3. S=c1nc(-c2nc(=S)[nH]c3c2CCCCCCCCCC3)c2c([nH]1)CCCCCCCCCC2

Completion:
1: 101 % of control; 2: 102 % of control; 3: 92 % of control

Numbers sourced from PubChem BioAssay AID330.
